- assayed.target: Cdk5/p25 (Homo sapiens)
- protocol.summary: Cyclin-Dependent Kinase 5 High Throughput Screening (cdk5-HTS) Assay
- Type: biochemical
- settings: high throughput screen
pIC50: −log10 of the molar value.
# if value of pIC50 reaches 7, tag Condition met; if it stays below, tag Condition not met

In [3]: df
Out[3]:
                                   molecule   class_assignment
0    Cn1c(=O)ccc2cnc(Nc3ccc4[nH]ccc4c3)nc21  Condition not met
1  CCn1c(=O)ccc2cnc(Nc3cc(OC)c(OC)c(OC)c3)nc21  Condition not met
2  CCC(C)n1c(=O)ccc2cnc(Nc3ccc(C)c(Cl)c3)nc21 (stereo not drawn)      Condition met
3    Cc1ccc(Nc2ncc3ccc(=O)n(C(C)C)c3n2)cc1C      Condition met
4  CCC(CC)n1c(=O)ccc2cnc(Nc3ccc(C#N)c(NC(C)=O)c3)nc21      Condition met

----------
- assayed.target: Cdk5/p25 (Homo sapiens, UniProt Q00535)
- protocol.summary: Cyclin-Dependent Kinase 5 High Throughput Screening (cdk5-HTS) Assay
- Format: biochemical
- settings: high throughput screen
pIC50: −log10 of the molar value.
# if value of pIC50 reaches 7, tag True; if it stays below, tag False

                                    molecule                           assayed_target  class_assignment
 0  CC(C)n1c(=O)ccc2cnc(Nc3ccc4c(c3)CCCC4=O)nc21  Cdk5/p25 (Homo sapiens, UniProt Q00535)              True
 1  CCC(CC)n1c(=O)ccc2cnc(Nc3ccc4[nH]c5ccccc5c4c3)nc21  Cdk5/p25 (Homo sapiens, UniProt Q00535)              True
 2  CCC(C)n1c(=O)ccc2cnc(Nc3cc(OC)cc(C(F)(F)F)c3)nc21 (stereo not shown)  Cdk5/p25 (Homo sapiens, UniProt Q00535)             False
 3  CCC(C)n1c(=O)ccc2cnc(Nc3ccc(C)c(I)c3)nc21 (stereo not shown)  Cdk5/p25 (Homo sapiens, UniProt Q00535)              True
 4  CCC(CC)n1c(=O)ccc2cnc(Nc3ccc(C(F)(F)F)c([N+](=O)[O-])c3)nc21  Cdk5/p25 (Homo sapiens, UniProt Q00535)             False
 5  CCC(CC)n1c(=O)ccc2cnc(Nc3ccc(Cl)c(C)c3)nc21  Cdk5/p25 (Homo sapiens, UniProt Q00535)              True
 6   CCCCn1c(=O)ccc2cnc(Nc3ccc(C)c(C)c3)nc21  Cdk5/p25 (Homo sapiens, UniProt Q00535)             False
 7  CCC(C)n1c(=O)ccc2cnc(Nc3ccc(Cl)c(C)c3)nc21 (stereo not shown)  Cdk5/p25 (Homo sapiens, UniProt Q00535)              True
 8  CC(C)n1c(=O)ccc2cnc(Nc3ccc(O)c(CN4CCOCC4)c3)nc21  Cdk5/p25 (Homo sapiens, UniProt Q00535)             False
 9     CCn1c(=O)ccc2cnc(Nc3ccc(F)c(C)c3)nc21  Cdk5/p25 (Homo sapiens, UniProt Q00535)              True
10  CC(C)n1c(=O)ccc2cnc(Nc3cccc(S(N)(=O)=O)c3)nc21  Cdk5/p25 (Homo sapiens, UniProt Q00535)              True
11     Cn1c(=O)ccc2cnc(Nc3ccc(O)c(Cl)c3)nc21  Cdk5/p25 (Homo sapiens, UniProt Q00535)             False
12  O=c1ccc2cnc(Nc3ccc4[nH]nnc4c3)nc2n1C1CCCC1  Cdk5/p25 (Homo sapiens, UniProt Q00535)              True
13  CCC(C)n1c(=O)ccc2cnc(Nc3ccc(C#N)cc3)nc21 (stereo not shown)  Cdk5/p25 (Homo sapiens, UniProt Q00535)              True
14      CCn1c(=O)ccc2cnc(Nc3ccc(C#N)cc3)nc21  Cdk5/p25 (Homo sapiens, UniProt Q00535)             False
15    Cc1cc(Nc2ncc3ccc(=O)n(C(C)C)c3n2)ccc1F  Cdk5/p25 (Homo sapiens, UniProt Q00535)              True
16  O=c1ccc2cnc(Nc3ccc(O)c(Cl)c3)nc2n1CC1CC1  Cdk5/p25 (Homo sapiens, UniProt Q00535)              True
17  CCC(C)n1c(=O)ccc2cnc(Nc3ccc4[nH]ncc4c3)nc21 (stereo not shown)  Cdk5/p25 (Homo sapiens, UniProt Q00535)              True
18  COc1ccc(Nc2ncc3ccc(=O)n(CC(F)(F)F)c3n2)cc1F  Cdk5/p25 (Homo sapiens, UniProt Q00535)             False
19       CCCn1c(=O)ccc2cnc(Nc3ccc(F)cc3)nc21  Cdk5/p25 (Homo sapiens, UniProt Q00535)             False
20  CC(C)n1c(=O)ccc2cnc(Nc3cc(Cl)c(O)c(Cl)c3)nc21  Cdk5/p25 (Homo sapiens, UniProt Q00535)             False
21  CCCn1c(=O)ccc2cnc(Nc3ccc(C#N)c(C#N)c3)nc21  Cdk5/p25 (Homo sapiens, UniProt Q00535)             False
22  Cc1cc(Nc2ncc3ccc(=O)n(C4CCCC4)c3n2)ccc1Br  Cdk5/p25 (Homo sapiens, UniProt Q00535)              True
23  CC(C)n1c(=O)ccc2cnc(Nc3cccc([N+](=O)[O-])c3)nc21  Cdk5/p25 (Homo sapiens, UniProt Q00535)              True
24  O=c1ccc2cnc(Nc3ccc4[nH]ccc4c3)nc2n1CC(F)(F)F  Cdk5/p25 (Homo sapiens, UniProt Q00535)             False
25  O=C(O)c1cc(Nc2ncc3ccc(=O)n(C4CCCC4)c3n2)ccc1O  Cdk5/p25 (Homo sapiens, UniProt Q00535)             False
